biological target: bovine cardiac myosin (Bos taurus (Bovine)); assay: Myosin inhibitory potency: PK/LDH-coupled ATPase assay on bovine skinned cardiac myofibrils; conditions: pCa=6.25, 50 μM ATP, 25° C., read-out: myosin inhibition activity IC50
Sequence (Q9BE39 whole entry): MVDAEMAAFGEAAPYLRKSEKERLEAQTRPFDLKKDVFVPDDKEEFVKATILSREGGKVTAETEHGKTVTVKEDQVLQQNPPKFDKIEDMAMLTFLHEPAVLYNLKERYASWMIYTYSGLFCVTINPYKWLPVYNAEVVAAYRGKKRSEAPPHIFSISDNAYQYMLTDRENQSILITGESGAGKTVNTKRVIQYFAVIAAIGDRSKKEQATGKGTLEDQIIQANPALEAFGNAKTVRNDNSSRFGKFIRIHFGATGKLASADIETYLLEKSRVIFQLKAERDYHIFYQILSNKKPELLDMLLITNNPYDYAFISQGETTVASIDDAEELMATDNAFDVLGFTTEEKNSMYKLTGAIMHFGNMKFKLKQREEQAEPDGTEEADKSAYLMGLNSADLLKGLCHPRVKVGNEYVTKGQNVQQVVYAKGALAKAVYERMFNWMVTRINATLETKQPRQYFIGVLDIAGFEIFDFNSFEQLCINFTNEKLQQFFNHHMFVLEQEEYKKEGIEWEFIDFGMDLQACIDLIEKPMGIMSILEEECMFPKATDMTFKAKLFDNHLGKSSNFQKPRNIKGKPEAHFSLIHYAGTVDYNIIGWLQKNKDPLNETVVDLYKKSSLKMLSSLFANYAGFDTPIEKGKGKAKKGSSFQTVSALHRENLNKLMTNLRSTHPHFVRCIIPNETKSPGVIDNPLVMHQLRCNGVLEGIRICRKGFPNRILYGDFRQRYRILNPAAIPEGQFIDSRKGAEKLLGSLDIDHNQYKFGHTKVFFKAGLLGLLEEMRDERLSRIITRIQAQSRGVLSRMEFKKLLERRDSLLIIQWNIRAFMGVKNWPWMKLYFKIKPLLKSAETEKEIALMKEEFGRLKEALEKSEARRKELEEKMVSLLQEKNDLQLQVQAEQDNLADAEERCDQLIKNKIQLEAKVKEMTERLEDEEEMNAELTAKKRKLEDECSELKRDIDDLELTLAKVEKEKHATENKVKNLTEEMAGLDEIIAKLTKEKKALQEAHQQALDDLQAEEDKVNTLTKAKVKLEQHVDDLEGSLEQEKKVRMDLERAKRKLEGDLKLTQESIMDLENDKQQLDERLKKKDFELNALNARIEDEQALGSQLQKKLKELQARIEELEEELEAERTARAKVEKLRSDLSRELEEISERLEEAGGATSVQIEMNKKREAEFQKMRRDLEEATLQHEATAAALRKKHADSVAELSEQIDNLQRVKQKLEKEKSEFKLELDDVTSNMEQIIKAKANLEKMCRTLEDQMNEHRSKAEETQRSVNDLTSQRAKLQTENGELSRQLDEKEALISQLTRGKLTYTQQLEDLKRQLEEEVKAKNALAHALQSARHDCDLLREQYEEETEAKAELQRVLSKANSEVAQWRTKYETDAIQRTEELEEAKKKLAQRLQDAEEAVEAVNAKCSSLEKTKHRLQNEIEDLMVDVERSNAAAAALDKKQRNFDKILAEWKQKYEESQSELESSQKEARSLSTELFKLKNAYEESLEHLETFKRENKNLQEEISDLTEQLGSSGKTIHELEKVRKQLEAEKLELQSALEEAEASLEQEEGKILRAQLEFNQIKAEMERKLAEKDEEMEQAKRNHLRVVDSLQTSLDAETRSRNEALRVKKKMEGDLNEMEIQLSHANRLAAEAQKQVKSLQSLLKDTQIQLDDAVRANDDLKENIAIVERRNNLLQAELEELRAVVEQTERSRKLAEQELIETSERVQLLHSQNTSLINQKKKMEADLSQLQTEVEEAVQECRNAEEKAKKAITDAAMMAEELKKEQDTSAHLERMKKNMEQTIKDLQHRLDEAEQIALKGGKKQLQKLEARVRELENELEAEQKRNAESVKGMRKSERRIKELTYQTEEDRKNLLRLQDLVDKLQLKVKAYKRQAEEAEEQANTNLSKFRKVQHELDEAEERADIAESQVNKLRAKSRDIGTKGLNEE
Sequence (P85100 whole entry partner): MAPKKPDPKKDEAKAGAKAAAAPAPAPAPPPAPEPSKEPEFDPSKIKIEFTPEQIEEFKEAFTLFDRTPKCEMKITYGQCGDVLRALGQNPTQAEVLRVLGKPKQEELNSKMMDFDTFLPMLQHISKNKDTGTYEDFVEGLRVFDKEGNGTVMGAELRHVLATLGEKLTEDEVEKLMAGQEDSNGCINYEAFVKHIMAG
Sequence (Q3SZE5 whole entry partner): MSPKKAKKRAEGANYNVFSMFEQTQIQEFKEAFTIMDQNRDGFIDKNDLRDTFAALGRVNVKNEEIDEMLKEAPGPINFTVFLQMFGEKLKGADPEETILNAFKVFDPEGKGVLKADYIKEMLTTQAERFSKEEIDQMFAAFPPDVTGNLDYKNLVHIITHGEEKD
value kind: IC50 (µM)

COCC(Nc1nc(=O)n(C(C)C)c(=O)[nH]1)c1cc(C)ccc1F (stereo not drawn) ... 1.81

a = CC(=O)N1CCC(c2cccc([C@H](C)Nc3nc(=O)n(C(C)C)c(=O)[nH]3)c2)CC1
b = C[C@H](Nc1nc(=O)n(C2(C(F)(F)F)CC2)c(=O)[nH]1)C1CCCCC1
Query :: Kindly identify which of a and b has the larger recorded IC50 value. Identify your selection by its label.
Result :: b
